# Lookup of reported Virus neutralization EC50 keyed by entry
# TARGET SYSTEM: HBsAg of HBV genotype D, serotype ayw (Hepatitis B virus)
# ASSAY REMARKS: cell-based or functional assay

BINDER | Virus neutralization EC50
NOV3836 (antibody, human IgG1, kappa, V domains shown) VH: QVQLVESGGGVVQPGRSLRLSCAASGFTFERYGMHWVRQAPGKGLEWVAGIWHEGSHKYYADSLRGRFTISRDNAKNTLDLQLNRLRAEDTSVYYCVRQTNRGRLDDAFDIWGQGTMVTVSS VL: DIQMTQSPSSLSAAVGDRVTISCRASQTISSYLNWYQQKPGEAPKLLIYAASTLQSGVPSRFGGSGSGTDFTLTISSLQPEDSATYYCQQNYDTLWTFGQGTKVEIKR | 0.017 nM
NOV3833 (antibody, human IgG1, lambda, V domains shown, Full human IgG1 (lambda) expressed in CHO cells) VH: EMQVLESGGGLVQPGGSLRLSCAASGFTFHNYAMSWVRQVPGKGLEWVSSISGSGGSTYYADSVKGQFTISRDNSKNTLYLQMNSLRAEDTAVYYCAKSSILSGGHARVYGIDVWGQGTTVTVSS VL: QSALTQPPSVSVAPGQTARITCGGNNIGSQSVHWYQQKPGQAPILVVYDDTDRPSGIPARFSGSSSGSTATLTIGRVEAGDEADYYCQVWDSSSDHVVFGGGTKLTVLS | 0.27 nM
NOV3832 (antibody, human IgG1, lambda, V domains shown, Full human IgG1 (lambda) expressed in CHO cells) VH: EMQVLESGGGLVQPGGSLRLSCAASGFTFDNYAMSWVRQVPGKGLEWVSSISGSGGSTYYADSVKGQFTISRDNSKNTLYLQMNSLRAEDTAVYYCAKSSILSGGHARVYGIDVWGQGTTVTVSS VL: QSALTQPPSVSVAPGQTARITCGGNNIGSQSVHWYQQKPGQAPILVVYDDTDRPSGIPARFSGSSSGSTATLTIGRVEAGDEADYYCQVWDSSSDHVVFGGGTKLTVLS | 0.26 nM

Source listed as patent US20240317840A1.
